Listing of entries alongside the reported inhibition.
molecular target: Hexose transporter 1 (Plasmodium falciparum) (UniProt O97467); assay: ST_JUDE_LEISH: Cytotoxicity at 2uM final concentration against transgenic Leishmania Mexicana promastigotes LmPfHT that are glucose transport deficient and complemented with the Plasmodium falciparum hexose transporter. Activity is measured by DNA content using SYBR green in vitro; format: functional
Your answer is read as %, so omit the unit and give the number.

The cases that follow already have their inhibition on record.
- Compound: "Cc1ccc(CNC(=O)[C@H](CCCN)Nc2cc(C)nc(Nc3ccccc3)n2)cc1"
  inhibition [%]: 5.71
- Compound: "COc1ccc2ncc(OC)c(CCN3CC[C@@H](NCc4ccc5c(n4)NC(=O)CS5)[C@H](O)C3)c2n1"
  inhibition [%]: 1.17
- Compound: "Cc1ccccc1CN1CCCN(Cc2ccc(C(=O)Nc3ccc(Cl)cc3)cc2)CC1"
  inhibition [%]: 6.18
- Compound: "COc1ccc(Nc2ncc(Cl)c(Nc3cccnc3C(N)=O)n2)cc1N1CCN(C)CC1"
  inhibition [%]: 92.6
- Compound: "O=C(Nc1cccc(Cl)c1)N(CCCn1ccnc1)Cc1csc(-c2ccc(CNCc3ccccc3)cc2)n1"
  inhibition [%]: 3.76

stdin: What value of inhibition has been reported for the following compound? Cc1cc(CNCC2CCC(CNCCCc3ccccc3)CC2)ccc1O (centres undefined)
stdout: 8.79

stdin: // inhibition lookup, key: CC(C)[C@H](NC(=O)c1c(CN2CCC(N3CCCCC3)CC2)c(-c2ccccc2)nc2cc(O)ccc12)c1ccccc1
stdout: 1.22

stdin: # get_value(readout='inhibition', item= COc1ccccc1-c1sccc1C(=O)NC1(c2cc(Cl)cc(Cl)c2)CCCC1 )
stdout: 0.95

stdin: Return reported inhibition; argument: CN1CCC(N2CCN(c3ccc4c(=O)nc(CCc5cccc(F)c5F)n(CC(=O)N(C)Cc5ccc(-c6ccc(C(F)(F)F)cc6)cc5)c4n3)CC2)CC1
stdout: 0.33

stdin: Look up inhibition for this compound: O=C(Nc1ccsc1C(=O)NC1CCCCC1)c1ccc(F)cc1
stdout: -1.32

stdin: What value of measured inhibition is listed for O=C(CCNc1ccnc(NCCc2ccccc2)n1)Nc1ccccc1 ?
stdout: 3.7

stdin: I have this compound here, O=C(Nc1ccc(-c2ccccc2)cc1)Nc1cccc(Cn2ncc(N3CCCNCC3)c(Cl)c2=O)c1 , and I need its recorded inhibition.
stdout: 0.84

stdin: # inhibition lookup, item C=CCN1C(=O)CN(S(=O)(=O)c2ccc(-n3nc(C)cc3C)cc2)C1=S
stdout: 3.89

stdin: What measured inhibition goes with CSc1c(CNCCCNc2cc(=O)c3ccccc3[nH]2)[nH]c2ccccc12 ?
stdout: 4.28

stdin: Entry O=C(Nc1ccc(-c2ccccc2)cc1)Nc1cccc(Cn2nc(Cl)c(N3CCCNCC3)cc2=O)c1 : reported inhibition = ?
stdout: 0.49

stdin: What value of inhibition has been recorded for this entry: Cc1[nH]cnc1CSCCNC(=N)NCCCCCCCCNC(=N)NCCSCc1nc[nH]c1C
stdout: 0.71

stdin: Tell me the measured inhibition of N=C(/N=C(/NCCCCCCN/C(=N\C(=N)Nc1ccc(Cl)cc1)N1CCOCC1)N1CCOCC1)Nc1ccc(Cl)cc1 , please.
stdout: 9.54

stdin: Quick one: inhibition for COc1ccccc1N(C)CCNc1cc(C)nc(Nc2ccc(C)cc2)n1 ?
stdout: 7.28

stdin: I'd like to know its inhibition. The compound in question is Cc1ccc(-c2cc3nc4c(c(NCCCn5ccnc5)n3n2)CCC4)cc1
stdout: 1.6
